assay: Half life in rat at 100 mg/kg, po measured up to 48 hrs by LC-MS/MS analysis; assay type: ADME, organism-based; conditions: in vivo
measure name: half-life (h)
Answers are plain numbers, in h.

**Q:** Tell me measured half-life for CN1CCN(c2ccc(Nc3ncc4cc(C(=O)N(C)C)n(C56CC(C5)C6)c4n3)cc2)CC1 please.
**A:** 6

###

assay: Oral bioavailability in rat at 100 mg/kg administered as single dose measured up to 48 hrs by LC-MS/MS analysis; type: ADME, organism-based; details: in vivo
measure name: bioavailability

**Q:** Tell me measured bioavailability for CN1CCN(c2ccc(Nc3ncc4cc(C(=O)N(C)C)n(C56CC(C5)C6)c4n3)cc2)CC1 please.
**A:** 33.3%
